The molecules listed here are annotated with their MCH-1R Agonist Activation %.
Molecular target: rat MCH-1R (Rattus norvegicus)
Sequence (P97639 whole entry): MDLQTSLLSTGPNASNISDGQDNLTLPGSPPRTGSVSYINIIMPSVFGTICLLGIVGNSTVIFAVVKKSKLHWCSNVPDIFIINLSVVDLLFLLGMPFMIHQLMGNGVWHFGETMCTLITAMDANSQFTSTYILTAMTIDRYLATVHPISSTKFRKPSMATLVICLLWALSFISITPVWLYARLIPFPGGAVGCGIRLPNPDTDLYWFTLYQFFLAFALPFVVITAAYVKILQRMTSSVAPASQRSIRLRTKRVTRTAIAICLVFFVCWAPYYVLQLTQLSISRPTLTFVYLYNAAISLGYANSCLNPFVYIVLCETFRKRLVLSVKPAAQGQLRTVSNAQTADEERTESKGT
Assay: Aequorin bioluminescence functional assay, MCH-1R agonist activity
Conditions: 293-AEQ17 cells expressing rat MCH-1R
Where a SMILES comes first, the peptide text is derived from it. Bridges are numbered along the chain shown (N, C = ends). [ ]: non-standard residue; d: D form. The star is where a group is joined. Pentanoyl(5-guanidino) = NC(N)=NCCCCC(=O)*; dNle = CCCC[C@@H](N)C(=O)O; Ava = NCCCCC(=O)O
Write down the numeric answer in % and omit the unit.

Some molecules with recorded MCH-1R Agonist Activation %:
# molecule, reportedMeasurement
measured = [
    ("CSCC[C@@H]1NC(=O)[C@@H](NC(=O)CCCCNC(=N)N)CSSC[C@@H](C(N)=O)NC(=O)CCCCNC(=O)CCCCNC(=O)[C@H](Cc2ccc(O)cc2)NC(=O)[C@H](C(C)C)NC(=O)[C@H](CCCNC(=N)N)NC(=O)CCCCNC(=O)CCCCNC1=O [SEQ. ID. NO. 32] ({Pentanoyl(5-guanidino)}-CM[Ava][Ava]RVY[Ava][Ava]C-NH2; disulfide 1-10; C-terminus assumed)", 3),
    ("CSCC[C@@H]1NC(=O)[C@@H](NC(=O)CCCCNC(=N)N)CSSC[C@@H](C(N)=O)NC(=O)CCCCNC(=O)CCCCNC(=O)[C@H](Cc2ccc(O)cc2)NC(=O)[C@H](C)NC(=O)[C@H](CCCNC(=N)N)NC(=O)CNC(=O)[C@H](CC(C)C)NC1=O [SEQ. ID. NO. 20] ({Pentanoyl(5-guanidino)}-CMLGRAY[Ava][Ava]C-NH2; disulfide 1-10; C-terminus assumed)", 3.4),
]

[Q] I'd like to know its MCH-1R Agonist Activation %. The molecule in question is CSCC[C@@H]1NC(=O)[C@@H](NC(=O)[C@H](CCCNC(=N)N)NC(C)=O)CSSC[C@@H](C(N)=O)NC(=O)CCCCNC(=O)CCCCNC(=O)[C@H](Cc2ccc(O)cc2)NC(=O)[C@H](C(C)C)NC(=O)[C@H](CCCNC(=N)N)NC(=O)CNC(=O)[C@H](CC(C)C)NC1=O [SEQ. ID. NO. 8] (Ac-RCMLGRVY[Ava][Ava]C-NH2; disulfide 2-11; C-terminus assumed)
[A] 75

[Q] Another: CCCC[C@H]1NC(=O)[C@H](CC(C)C)NC(=O)[C@H](CCSC)NC(=O)[C@@H](NC(=O)CCCCNC(=N)N)CSSC[C@@H](C(N)=O)NC(=O)CCCCNC(=O)CCCCNC(=O)[C@H](Cc2ccc(O)cc2)NC(=O)[C@H](C(C)C)NC(=O)[C@H](CCCNC(=N)N)NC1=O [SEQ. ID. NO. 27] ({Pentanoyl(5-guanidino)}-CML[dNle]RVY[Ava][Ava]C-NH2; disulfide 1-10; C-terminus assumed)
[A] 3

[Q] Lookup CSCC[C@@H]1NC(=O)[C@@H](NC(=O)CCCNC(=N)N)CSSC[C@@H](C(N)=O)NC(=O)CCCCNC(=O)CCCCNC(=O)[C@H](Cc2ccc(O)cc2)NC(=O)[C@H](C(C)C)NC(=O)[C@H](CCCNC(=N)N)NC(=O)CNC(=O)[C@H](CC(C)C)NC1=O
[A] 6

[Q] How about this molecule: CSCC[C@@H]1NC(=O)[C@@H](NC(=O)[C@@H](CCCNC(=N)N)NC(C)=O)CSSC[C@@H](C(N)=O)NC(=O)CCCCNC(=O)CCCCNC(=O)[C@H](Cc2ccc(O)cc2)NC(=O)[C@H](C(C)C)NC(=O)[C@H](CCCNC(=N)N)NC(=O)CNC(=O)[C@H](CC(C)C)NC1=O [SEQ. ID. NO. 10] (Ac-[dR]CMLGRVY[Ava][Ava]C-NH2; disulfide 2-11 (inferred); C-terminus assumed)
[A] 28
